Experiment: Particle size and polydispersity index of nanoparticle compositions (Zetasizer Nano ZS)
Type: physicochemical
Settings: Table 1B; formulated with hEPO mRNA

- Compound: "CCCCCCCCCCCOC(=O)CCCCCN(CCO)CCCCCCCC(=O)OC(CCCCCCCC)CCCCCCCC [Compound 25]"
  PDI: 0.14
- Compound: "CCCCCCCCCOC(=O)CCCCCCCN(CCCCCCCC(=O)OC(CCCCCCCC)CCCCCCCC)CCCNS(C)(=O)=O [Compound 109]"
  PDI: 0.099
- Compound: "CCCCCCCCC(CCCCCCCC)OC(=O)CCCCCCCN(CCO)CCCCCCCCCC(=O)OCCCCCCC [Compound 189]"
  PDI: 0.16
- Compound: "CCCCCCCCCOC(=O)CCCCCCCNCCCCCCCC(=O)OC(CCCCCCCC)CCCCCCCC [Compound 237]"
  PDI: 0.15
- Compound: "CCCCCCCCCOC(=O)CCCCCCCN(CCCCCCCC(=O)OC(CCCCCCCC)CCCCCCCC)CCCNC(=S)N(C)C [Compound 111]"
  PDI: 0.13
- Compound: "CCCCC/C=C\\C/C=C\\CCCCCCCCC(CCCCCCCC/C=C\\C/C=C\\CCCCC)OC(=O)CCCN(C)C [MC3, DLin-MC3-DMA, reference compound]"
  PDI: 0.12
- Compound: "CCCCCCCCCOC(=O)CCCCCCCN(CCCCCCCC(=O)OC(CCCCCCCC)CCCCCCCC)CCCC(N)=O [Compound 243]"
  PDI: 0.35

###

Experiment: Pharmacokinetics of lipids in mice
Format: in vivo
Settings: Spleen, mouse; read-out: Tmax

- Sample Smiles: "CCCCCCCCCOC(=O)CCCCCCCN(CCO)CCCCCCCC(=O)OC(CCCCCCCC)CCCCCCCC"
  Tmax (h): 4
- Sample Smiles: "CCCCCCCCCCCOC(=O)CCCCCN(CCO)CCCCCCCC(=O)OC(CCCCCCCC)CCCCCCCC"
  Tmax (h): 4

###

Catalogue of PDI values
Assay: Particle size and polydispersity index of nanoparticle compositions (Zetasizer Nano ZS)
Format: physicochemical
Settings: Table 1A

- Molecule: "CCCCCCCCC(C)OC(=O)CCCCCCCN(CCO)CCCCCCCOC(=O)C(CCCCCCCC)CCCCCCCC (centres unmarked) [Compound 135]"
  PDI: 0.130
- Molecule: "CCCCCCCCC(CCCCCCCC)OC(=O)CCCCCCCN(CCO)CCCC(=O)OC(CCCCC)CCCCCCCC (centres unmarked) [Compound 71]"
  PDI: 0.24
- Molecule: "CCCCCCCCCCCOC(=O)CCCCCN(CCO)CCCCCCCC(=O)OC(CCCCCCCC)CCCCCCCC [Compound 25]"
  PDI: 0.10
- Molecule: "CCCCCCCCCOC(=O)CCCCCCCN(CCCCCCCC(=O)OC(CCCCCCCC)CCCCCCCC)CCCNC(=O)CO [Compound 198]"
  PDI: 0.24
- Molecule: "CCCCCCCCC(CCCCCCCC)C(=O)OCCCCCCCN(CCO)C(C)CCCCCCCCOC(=O)CCCCCCC (centres unmarked) [Compound 162]"
  PDI: 0.14
- Molecule: "CCCCCCCCC(CCCCCCCC)OC(=O)CCCCCCCN(CCO)CCCCCC(=O)N(C)CCCCCCCC [Compound 146]"
  PDI: 0.210
- Molecule: "CCCCCCCCCOC(=O)CCCCCCCN(CCCCCCCC(=O)OC(CCCCCCCC)CCCCCCCC)CCCn1ccc(N)nc1=O [Compound 115]"
  PDI: 0.11
- Molecule: "CCCCCCCCC(CCCCCC)C(=O)OCCCCCCCCCN(CCO)CCCCCCCCCOC(=O)C(CCCCCC)CCCCCCCC (centres unmarked) [Compound 133]"
  PDI: 0.098
- Molecule: "CCCCCCCCC(CC)OC(=O)CCCCCCCN(CCO)CCCCCCCC(=O)OC(CCCCCCCC)CCCCCCCC (centres unmarked) [Compound 49]"
  PDI: 0.14
- Molecule: "CCCCCCCCC(CCCCCCCC)OC(=O)CCCCCCCN(C)CCCCCCCCCCCC(=O)OCCCCC [Compound 150]"
  PDI: 0.082
- Molecule: "CCCCCCCCCOC(=O)CCCCCCCN(CCCCCCCC(=O)OC(CCCCCCCC)CCCCCCCC)C1CCCCC1O (centres unmarked) [Compound 22]"
  PDI: 0.22
- Molecule: "CCCCCCCCCOC(=O)CCCCCCCN(CCO)CCCCCCCC(=O)OC(CCCCCC)CCCCCCCC (centres unmarked) [Compound 32]"
  PDI: 0.18
- Molecule: "CCCCCCCCCOC(=O)C(C)CCCCCCN(CCO)CCCCCCCC(=O)OC(CCCCCCCC)CCCCCCCC (centres unmarked) [Compound 164]"
  PDI: 0.13
- Molecule: "CCCCCCCCCOC(=O)CCCCCCCN(CCCCCCCC(=O)OC(CCCCCCCC)CCCCCCCC)CCCNC(=O)COC [Compound 178]"
  PDI: 0.12
- Molecule: "CCCCCCCCC(CCCCCCCC)OC(=O)CCCCCCCN(CCO)CCCCCC [Compound 5]"
  PDI: 0.21
- Molecule: "CCCCCCCCC(CCCCCCCC)OC(=O)CCCCCCCN(CCO)CCCCCC(=O)OC(CCCCCCCC)C1CC1 (centres unmarked) [Compound 128]"
  PDI: 0.22
- Molecule: "CCCCCCCCC(CCCCCCCC)OC(=O)CCCCCCCN(CCO)CCCCCCCC(=O)OC1CCC(CCCCC)CC1 (centres unmarked) [Compound 66]"
  PDI: 0.120

Numbers sourced from patent US12263248B2.
